Target: CYP2B6 (Homo sapiens)
Sequence (P20813 whole entry): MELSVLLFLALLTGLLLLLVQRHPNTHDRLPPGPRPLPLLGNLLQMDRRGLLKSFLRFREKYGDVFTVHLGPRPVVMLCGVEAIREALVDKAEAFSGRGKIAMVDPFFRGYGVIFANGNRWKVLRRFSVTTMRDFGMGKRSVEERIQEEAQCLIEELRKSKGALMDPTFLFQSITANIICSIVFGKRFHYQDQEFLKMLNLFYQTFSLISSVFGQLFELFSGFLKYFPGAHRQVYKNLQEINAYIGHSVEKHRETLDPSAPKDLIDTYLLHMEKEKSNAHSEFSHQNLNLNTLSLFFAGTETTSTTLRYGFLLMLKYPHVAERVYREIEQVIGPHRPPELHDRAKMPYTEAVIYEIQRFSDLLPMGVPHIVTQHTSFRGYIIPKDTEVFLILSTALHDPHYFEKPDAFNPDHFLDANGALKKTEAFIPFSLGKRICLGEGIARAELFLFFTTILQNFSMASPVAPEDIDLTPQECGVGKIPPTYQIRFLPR
Experiment: Time dependent inhibition of CYP2B6 in human liver microsomes at 10 uM by LC-MS/MS analysis relative to control
Type: ADME, Microsome
Conditions: read-out: TDI
quantity-name: inhibition at 10 µM (%)
The reply should contain only the number, in %.

# query: inhibition at 10 µM | item CC(C)(C)[C@H](NC(=O)[C@H](Cc1ccncc1)NC(=O)CNC(=O)CC[C@H](NS(=O)(=O)c1ccc(Cl)c(C(F)(F)F)c1)C(=O)O)C(=O)Nc1ccc(C(=O)N2CCC(C(=O)N[C@H](CCCCN)C(=O)N3CC[C@H](N)C3)CC2)cc1 | system: CYP2B6 (Homo sapiens)
-4.8
